B1: tRNA (parent)
chain: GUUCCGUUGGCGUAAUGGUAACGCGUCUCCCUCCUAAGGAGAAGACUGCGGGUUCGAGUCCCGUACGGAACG

- Variants of: B1
- TEST_PROTOCOL: yeast fitness relative to wild type (ratio to wild type); higher = fitter; tRNA-Arg(CCU), competitive growth, 37 C, YPD
This sample holds only a part of the variants without activity.
Item-by-item account of yeast fitness
Please respond with just the number, no unit label.

mutant_id="C11G C30A U47G U53C" reading=0.597
mutant_id="C5A C11G G51A" reading=0.538

q: What yeast fitness value was documented for this variant, C4G G58C C66U ?
a: 0.73

q: What yeast fitness value was documented for this variant, C11U G12A C31U ?
a: 0.532

q: What yeast fitness value was documented for this variant, A20U U47C ?
a: 0.935

q: What yeast fitness value was documented for this variant, C11G C29G C33U C46A C49G ?
a: 0.564

q: What yeast fitness value was documented for this variant, U19A C30A A43G C49U G51U C55A ?
a: 0.528

q: What yeast fitness value was documented for this variant, U28G G38U ?
a: 0.711

q: What yeast fitness value was documented for this variant, U3A U19A C62U ?
a: 0.776

q: What yeast fitness value was documented for this variant, C4U C60G G63A ?
a: 0.706

q: What yeast fitness value was documented for this variant, C4U A43G ?
a: 1
